- Measured on: mouse RAR beta receptor (Mus musculus, UniProt P22605)
- Sequence (P22605 210-444 limits assumed): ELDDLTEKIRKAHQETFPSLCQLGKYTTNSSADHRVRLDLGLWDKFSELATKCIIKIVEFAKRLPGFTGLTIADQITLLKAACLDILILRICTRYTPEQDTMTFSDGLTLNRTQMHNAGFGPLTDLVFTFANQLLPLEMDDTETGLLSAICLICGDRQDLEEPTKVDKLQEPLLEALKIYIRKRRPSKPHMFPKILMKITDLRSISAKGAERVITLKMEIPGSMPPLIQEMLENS
- Measurement setup: ratio of relative EC50s RARβ/RARα
Provide the recorded β/α ratio for the entries that follow.
Write no unit; give the number alone.

Give the reported value of β/α ratio for this record: `O=C(O)c1ccc(NC(=O)c2cc(Cl)c(OC3CCC3)c(OC3CCC3)c2)cc1`
22

Give the reported value of β/α ratio for this record: `CCOc1cc(C(=O)Nc2ccc(C(=O)O)cc2)cc(OC(C)C)c1OCC`
84

Give the reported value of β/α ratio for this record: `CCOc1c(Cl)cc(C(=O)Nc2ccc(C(=O)O)c(C)c2)cc1OC`
210

Give the reported value of β/α ratio for this record: `CCOc1cc(C(=O)Nc2ccc(C(=O)O)c(C)c2)cc(Cl)c1OC(C)C`
286

Give the reported value of β/α ratio for this record: `CCOc1c(Cl)cc(C(=O)Nc2ccc(C(=O)O)c(C)c2)cc1OCC1CC1`
58

Give the reported value of β/α ratio for this record: `CC(C)Oc1cc(C(=O)Nc2ccc(C(=O)O)cc2)cc(OC(C)C)c1OC(C)C`
96
